# experimental_target: CDK4 CCND3 (human) (UniProt P30281+P11802)
# Sequence (P11802 whole entry, looked up): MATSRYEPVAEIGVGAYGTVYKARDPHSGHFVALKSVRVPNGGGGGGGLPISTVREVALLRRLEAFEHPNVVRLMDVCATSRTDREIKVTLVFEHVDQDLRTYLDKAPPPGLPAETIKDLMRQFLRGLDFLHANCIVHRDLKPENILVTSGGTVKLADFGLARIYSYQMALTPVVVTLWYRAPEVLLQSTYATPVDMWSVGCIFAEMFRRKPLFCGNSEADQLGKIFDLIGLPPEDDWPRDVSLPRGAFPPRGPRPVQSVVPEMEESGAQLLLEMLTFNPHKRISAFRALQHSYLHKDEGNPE
# Sequence (P30281 whole entry, looked up): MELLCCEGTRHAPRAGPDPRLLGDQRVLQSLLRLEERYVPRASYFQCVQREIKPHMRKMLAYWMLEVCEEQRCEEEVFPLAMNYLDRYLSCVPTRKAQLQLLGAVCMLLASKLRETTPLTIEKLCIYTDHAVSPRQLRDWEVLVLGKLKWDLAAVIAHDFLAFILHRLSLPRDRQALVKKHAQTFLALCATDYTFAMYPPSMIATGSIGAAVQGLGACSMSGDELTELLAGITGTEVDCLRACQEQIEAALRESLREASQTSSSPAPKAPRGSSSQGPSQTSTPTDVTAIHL
# assay_info: radiometric filter-binding kinase assay, Kinase HotSpot
# experimental_parameters: compound 0.5 µM; ATP 10 µM
Measured residual activity accompanies every entry in the list below.
Kindly provide the numeric value in % only, without the unit symbol.

Below: 5 compounds and their reported residual activity.
smiles_str: c1ccc(-c2cnc(Nc3ccc(OCCN4CCCC4)cc3)s2)cc1
residual activity [%]: 84.9
//
smiles_str: O=c1cc(N2CCOCC2)oc2c(-c3ccccc3)cccc12
residual activity [%]: 96.2
//
smiles_str: N#Cc1c(NC(=O)c2cccc3ccccc23)sc2c1CCCC2
residual activity [%]: 97.1
//
smiles_str: O=c1c2ccccc2[nH]c(=S)n1CCN1CCC(=C(c2ccc(F)cc2)c2ccc(F)cc2)CC1
residual activity [%]: 99
//
smiles_str: Cc1cc(Nc2nc(-c3ccccc3)nc3ccccc23)n[nH]1
residual activity [%]: 94.4

Need residual activity of `FC(F)(F)c1ccc(/C=C/c2nc(COc3ccc(CCCCn4ccnn4)cc3)co2)cc1` , thanks.
119

Need residual activity of `Nc1ncnc2c1cnn2-c1ccccc1` , thanks.
94

---

# experimental_target: ZAP70 (human) (UniProt P43403)
# Sequence (P43403 whole entry, looked up): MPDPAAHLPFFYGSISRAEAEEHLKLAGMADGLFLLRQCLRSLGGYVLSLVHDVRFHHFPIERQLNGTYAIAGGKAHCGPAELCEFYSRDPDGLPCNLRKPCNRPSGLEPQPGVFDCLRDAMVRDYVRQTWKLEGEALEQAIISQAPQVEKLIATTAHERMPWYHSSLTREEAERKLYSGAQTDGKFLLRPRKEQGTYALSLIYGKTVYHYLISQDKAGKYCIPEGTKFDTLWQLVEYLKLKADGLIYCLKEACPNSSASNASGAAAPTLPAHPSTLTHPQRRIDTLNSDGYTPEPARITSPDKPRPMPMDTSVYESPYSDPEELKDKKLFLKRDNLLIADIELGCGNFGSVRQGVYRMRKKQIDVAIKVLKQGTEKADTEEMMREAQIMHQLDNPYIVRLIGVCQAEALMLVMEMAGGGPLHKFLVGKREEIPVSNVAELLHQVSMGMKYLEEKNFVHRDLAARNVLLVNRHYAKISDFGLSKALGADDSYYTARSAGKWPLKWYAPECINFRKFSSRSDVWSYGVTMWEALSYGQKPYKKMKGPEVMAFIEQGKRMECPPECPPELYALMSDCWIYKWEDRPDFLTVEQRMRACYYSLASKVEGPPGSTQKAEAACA
# assay_info: radiometric filter-binding kinase assay, Kinase HotSpot
# experimental_parameters: compound 0.5 µM; ATP 10 µM
Measured residual activity accompanies every entry in the list below.
Kindly provide the numeric value in % only, without the unit symbol.

smiles_str: Cc1cc(Nc2nc(-c3ccccc3)nc3ccccc23)n[nH]1
residual activity (%): 105
--
smiles_str: O=c1c2ccccc2[nH]c(=S)n1CCN1CCC(=C(c2ccc(F)cc2)c2ccc(F)cc2)CC1
residual activity (%): 98
--
smiles_str: O=C(O)c1ccc2c3c1cccc3c(=O)n1c3ccccc3nc21
residual activity (%): 119
--
smiles_str: O=S(=O)(NCCNC/C=C/c1ccc(Br)cc1)c1cccc2cnccc12
residual activity (%): 97.9
--
smiles_str: O=c1cc(N2CCOCC2)oc2c(-c3ccccc3)cccc12
residual activity (%): 102
--
smiles_str: O=c1c(-c2ccc(F)cc2)c(-c2ccncc2)[nH]n1-c1ccc(Cl)cc1
residual activity (%): 108

Need residual activity of `O=C1NC(=O)c2c1c1c3ccccc3[nH]c1c1[nH]c3cc(Br)ccc3c21` , thanks.
104

Need residual activity of `O=c1[nH]c2ccccc2n1C1CCN(Cc2ccc(-c3nc4cc5[nH]cnc5cc4nc3-c3ccccc3)cc2)CC1` , thanks.
97.3

Need residual activity of `N#CCCc1ccc2c(c1)-c1[nH]c3ccc([N+](=O)[O-])cc3c1CC(=O)N2` , thanks.
106

---

# experimental_target: VRK1 (human) (UniProt Q99986)
# Sequence (Q99986 whole entry, looked up): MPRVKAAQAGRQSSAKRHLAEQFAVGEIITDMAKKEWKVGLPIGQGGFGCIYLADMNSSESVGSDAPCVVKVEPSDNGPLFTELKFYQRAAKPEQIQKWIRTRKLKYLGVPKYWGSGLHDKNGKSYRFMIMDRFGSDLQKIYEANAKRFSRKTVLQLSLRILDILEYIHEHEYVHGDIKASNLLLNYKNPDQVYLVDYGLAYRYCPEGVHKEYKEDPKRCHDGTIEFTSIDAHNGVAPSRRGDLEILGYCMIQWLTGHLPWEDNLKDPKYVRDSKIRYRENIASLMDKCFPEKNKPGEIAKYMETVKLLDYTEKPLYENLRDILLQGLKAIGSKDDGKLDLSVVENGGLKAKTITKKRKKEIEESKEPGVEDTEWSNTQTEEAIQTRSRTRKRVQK
# assay_info: radiometric filter-binding kinase assay, Kinase HotSpot
# experimental_parameters: compound 0.5 µM; ATP 10 µM
observation_type: residual activity (%)
Kindly provide the numeric value in % only, without the unit symbol.

Below: 3 molecules and their reported residual activity.
smiles_str: Nc1ncnc2c1cnn2-c1ccccc1
value_unit: %
residual activity: 84.4

smiles_str: O=c1c2ccccc2[nH]c(=S)n1CCN1CCC(=C(c2ccc(F)cc2)c2ccc(F)cc2)CC1
value_unit: %
residual activity: 95.9

smiles_str: O=C1NC(=O)c2c1c1c3ccccc3[nH]c1c1[nH]c3cc(Br)ccc3c21
value_unit: %
residual activity: 92.3

Turning to the following molecule.
Query the reported residual activity for VRK1 (human) (UniProt Q99986); item: `N/C(=N\N=C/c1ccc(-c2cccc([N+](=O)[O-])c2)o1)N[N+](=O)[O-]`
95.1

All values here come from the kinase profiling compilation of Christmann-Franck et al. (2016).
